Biological target: COX-2 (Ovis aries, UniProt P79208)
Construct: purchased Cayman chemical, MI, USA
Assay: biochemical
Type: biochemical
Conditions: COX-1 IC50/COX-2 IC50
reportedEndpoint: COX-2 S.I. (in-vitro COX-2 selectivity index)

Consider the reported COX-2 S.I. (in-vitro COX-2 selectivity index) for these compounds:
INSERT INTO results (compound, reading) VALUES
  ('CCC1=C(C(=O)OC)C(c2ccc(S(C)(=O)=O)cc2)C2=C(CC(C)(C)CC2=O)N1 (stereo not drawn) [Compound 5c]', 52.1),
  ('COC(=O)C1=C(C)NC2=C(C(=O)CC(C)(C)C2)C1c1ccc(S(C)(=O)=O)cc1 (stereo not drawn) [Compound 5a]', 62.9),
  ('COC(=O)C1=C(N)NC2=C(C(=O)CC(C)(C)C2)C1c1ccc(S(C)(=O)=O)cc1 (stereo not drawn) [Compound 5b]', 70.4);

(a) CC1=C(C(=O)OC(C)(C)C)C(c2ccc(S(C)(=O)=O)cc2)C2=C(CC(C)(C)CC2=O)N1 (stereo not drawn) [Compound 5h]
(b) CCCC1=C(C(=O)OCC)C(c2ccc(S(C)(=O)=O)cc2)C2=C(CC(C)(C)CC2=O)N1 (stereo not drawn) [Compound 5f]
(c) CCOC(=O)C1=C(C)NC2=C(C(=O)CC(C)(C)C2)C1c1ccc(S(C)(=O)=O)cc1 (stereo not drawn) [Compound 5e]
**Q:** # rank_down: sort by COX-2 S.I. (in-vitro COX-2 selectivity index), max first Put the labels in the order asked and list them.
**A:** c, a, b
(c: 92.0, a: 63.7, b: 18.2)

###

reportedEndpoint: melting point

Consider the reported melting point for these molecules:
INSERT INTO assay_data (molecule, reportedendpoint, reading) VALUES
  ('CCOC(=O)C1=C(c2ccccc2)NC2=C(C(=O)CC(C)(C)C2)C1c1ccc(S(C)(=O)=O)cc1 (stereo not shown)', 'melting point', '187.9 to 189 °C'),
  ('COC(=O)C1=C(C)NC2=C(C(=O)CC(C)(C)C2)C1c1ccc(S(C)(=O)=O)cc1 (stereo not shown)', 'melting point', '244 to 245 °C'),
  ('CCCC1=C(C(=O)OCC)C(c2ccc(S(C)(=O)=O)cc2)C2=C(CC(C)(C)CC2=O)N1 (stereo not shown)', 'melting point', '163 to 164 °C');

**Q:** Note melting point for the molecule shown: CCOC(=O)C1=C(C)NC2=C(C(=O)CC(C)(C)C2)C1c1ccc(S(C)(=O)=O)cc1 (stereo not shown)
**A:** 180.7 to 182.3 °C

**Q:** Note melting point for the molecule shown: CC1=C(C(=O)OCc2ccccc2)C(c2ccc(S(C)(=O)=O)cc2)C2=C(CC(C)(C)CC2=O)N1 (stereo not shown)
**A:** 136.9 to 138.9 °C

**Q:** Note melting point for the molecule shown: CCC1=C(C(=O)OC)C(c2ccc(S(C)(=O)=O)cc2)C2=C(CC(C)(C)CC2=O)N1 (stereo not shown)
**A:** 186.5 to 188 °C

**Q:** Note melting point for the molecule shown: CC1=C(C(=O)OC(C)(C)C)C(c2ccc(S(C)(=O)=O)cc2)C2=C(CC(C)(C)CC2=O)N1 (stereo not shown)
**A:** 163 to 164 °C

###

Biological target: COX-1 (Ovis aries, UniProt P05979)
Construct: purchased Cayman chemical, MI, USA
Sequence (P05979 25-600): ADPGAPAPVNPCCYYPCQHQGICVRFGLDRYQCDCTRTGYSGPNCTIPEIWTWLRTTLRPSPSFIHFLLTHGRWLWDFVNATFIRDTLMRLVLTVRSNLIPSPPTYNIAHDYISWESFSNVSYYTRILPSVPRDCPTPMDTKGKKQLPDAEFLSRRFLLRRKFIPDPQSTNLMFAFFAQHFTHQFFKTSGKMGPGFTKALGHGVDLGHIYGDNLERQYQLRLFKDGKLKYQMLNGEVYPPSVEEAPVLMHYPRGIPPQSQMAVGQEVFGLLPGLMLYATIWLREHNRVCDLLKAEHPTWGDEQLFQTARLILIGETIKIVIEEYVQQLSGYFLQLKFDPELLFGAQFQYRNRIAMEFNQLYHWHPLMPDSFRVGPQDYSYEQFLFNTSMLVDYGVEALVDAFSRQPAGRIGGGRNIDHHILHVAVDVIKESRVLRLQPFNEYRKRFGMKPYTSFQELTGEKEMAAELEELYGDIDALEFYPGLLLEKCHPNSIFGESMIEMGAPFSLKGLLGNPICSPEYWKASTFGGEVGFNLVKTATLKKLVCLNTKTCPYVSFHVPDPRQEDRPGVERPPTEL
Assay: biochemical
Details: ovine COX-1/COX-2 assay kit; mean of two determinations, deviation < 10% of mean
Description: A group of 1,4-dihydropyridine derivativespossessing a MeSO2 at the para-position of the C-4 phenyl ring, alkyl groups(R1) at the C-2 position and alkyloxycarbonyl groups(COOR2) at the C-3 position were prepared and evaluated for their ability to inhibit COX-1 and COX-2 using chemiluminescent kit (Cayman chemical, MI, USA) according to our previously reported method ([14]).
reportedEndpoint: IC50 (µM)

Consider the reported IC50 for these compounds:
INSERT INTO assay_data (compound, targetortestsystem, reading) VALUES
  ('CCOC(=O)C1=C(C)NC2=C(C(=O)CC(C)(C)C2)C1c1ccc(S(C)(=O)=O)cc1 (stereo not drawn) [Compound 5e]', 'COX-1 (Ovis aries, UniProt P05979)', 27.6),
  ('COC(=O)C1=C(C)NC2=C(C(=O)CC(C)(C)C2)C1c1ccc(S(C)(=O)=O)cc1 (stereo not drawn) [Compound 5a]', 'COX-1 (Ovis aries, UniProt P05979)', 30.2);

(I) COC(=O)C1=C(N)NC2=C(C(=O)CC(C)(C)C2)C1c1ccc(S(C)(=O)=O)cc1 (stereo not drawn) [Compound 5b]
(II) CCOC(=O)C1=C(c2ccccc2)NC2=C(C(=O)CC(C)(C)C2)C1c1ccc(S(C)(=O)=O)cc1 (stereo not drawn) [Compound 5g]
**Q:** Two entries are listed, I and II . Which one carries the higher IC50? Give the chosen item's label as your response.
**A:** II

###

Target sequence: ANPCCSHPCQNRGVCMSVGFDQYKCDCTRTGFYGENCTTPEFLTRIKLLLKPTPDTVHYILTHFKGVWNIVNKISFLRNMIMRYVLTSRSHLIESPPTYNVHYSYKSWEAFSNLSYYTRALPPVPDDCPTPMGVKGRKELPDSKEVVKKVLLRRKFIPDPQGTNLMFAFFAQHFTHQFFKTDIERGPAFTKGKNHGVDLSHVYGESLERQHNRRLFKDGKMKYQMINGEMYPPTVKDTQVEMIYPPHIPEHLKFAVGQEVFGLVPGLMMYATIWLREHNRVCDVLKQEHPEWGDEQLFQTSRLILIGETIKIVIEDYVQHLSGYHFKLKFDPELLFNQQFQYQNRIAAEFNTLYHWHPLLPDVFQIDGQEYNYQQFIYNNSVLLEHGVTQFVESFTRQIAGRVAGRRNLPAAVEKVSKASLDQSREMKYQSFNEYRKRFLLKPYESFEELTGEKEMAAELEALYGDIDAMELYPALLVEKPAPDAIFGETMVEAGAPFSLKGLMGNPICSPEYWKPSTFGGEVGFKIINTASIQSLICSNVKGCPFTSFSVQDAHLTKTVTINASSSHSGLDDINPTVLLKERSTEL
pIC50: −log10 of the molar value.
reportedEndpoint: pIC50

Consider the reported pIC50 for these compounds:
INSERT INTO measurements (compound, reading) VALUES
  ('CC1=C(C(=O)OC(C)(C)C)C(c2ccc(S(C)(=O)=O)cc2)C2=C(CC(C)(C)CC2=O)N1 (stereo not shown)', 6.40),
  ('CCOC(=O)C1=C(C)NC2=C(C(=O)CC(C)(C)C2)C1c1ccc(S(C)(=O)=O)cc1 (stereo not shown)', 6.52);

(1) CCCC1=C(C(=O)OCC)C(c2ccc(S(C)(=O)=O)cc2)C2=C(CC(C)(C)CC2=O)N1 (stereo not shown)
(2) COC(=O)C1=C(C(C)C)NC2=C(C(=O)CC(C)(C)C2)C1c1ccc(S(C)(=O)=O)cc1 (stereo not shown)
**Q:** Record comparison, field pIC50: mark the lower of 1 and 2 . Give the chosen item's label as your response.
**A:** 1
(1: 5.86, 2: 6.21)
